This section presents molecules with their documented GFP response, % of DMSO values.
- assay.explanation: TOR pathway CIT2 reporter hit retest – S. cerevisiae, GFP fusion, cherry picks, mother/daughter gates, confirmation (AID 2274)
- cond: S. cerevisiae CIT2-GFP strain, flow cytometry, 3 h; measured here: mother cell gate; at 10 µM; stronger effect = higher value
measured.attribute: GFP response, % of DMSO (%)

# smiles.code, measured.attribute, reading
rows = [
    ("C[C@H]1C[C@@H]2[C@H]([C@@H](O)C[C@@]3(C)[C@H]2CC[C@]3(O)C(=O)CO)[C@@]2(C)C=CC(=O)C=C12", "GFP response, % of DMSO", 98.5),
    ("COc1cccc(/C=C/C(=O)c2c(O)cc(C)oc2=O)c1O", "GFP response, % of DMSO", 90.2),
    ("O=C(/C=C/c1ccccc1)c1ccccc1", "GFP response, % of DMSO", 99.1),
    ("CN(c1ccccc1)c1ccc(/C=c2\\s/c(=C(/C#N)C(=O)C(C)(C)C)n(Cc3ccco3)c2=O)cc1", "GFP response, % of DMSO", 230),
    ("O=c1[nH]cc(F)c(=O)[nH]1", "GFP response, % of DMSO", 89.8),
]

* * *

This section presents compounds with their documented inhibition values.
- target.of.assay: AP-2 complex subunit beta (Homo sapiens) (UniProt P63010)
- Sequence (P63010 whole entry, looked up, one chain of several): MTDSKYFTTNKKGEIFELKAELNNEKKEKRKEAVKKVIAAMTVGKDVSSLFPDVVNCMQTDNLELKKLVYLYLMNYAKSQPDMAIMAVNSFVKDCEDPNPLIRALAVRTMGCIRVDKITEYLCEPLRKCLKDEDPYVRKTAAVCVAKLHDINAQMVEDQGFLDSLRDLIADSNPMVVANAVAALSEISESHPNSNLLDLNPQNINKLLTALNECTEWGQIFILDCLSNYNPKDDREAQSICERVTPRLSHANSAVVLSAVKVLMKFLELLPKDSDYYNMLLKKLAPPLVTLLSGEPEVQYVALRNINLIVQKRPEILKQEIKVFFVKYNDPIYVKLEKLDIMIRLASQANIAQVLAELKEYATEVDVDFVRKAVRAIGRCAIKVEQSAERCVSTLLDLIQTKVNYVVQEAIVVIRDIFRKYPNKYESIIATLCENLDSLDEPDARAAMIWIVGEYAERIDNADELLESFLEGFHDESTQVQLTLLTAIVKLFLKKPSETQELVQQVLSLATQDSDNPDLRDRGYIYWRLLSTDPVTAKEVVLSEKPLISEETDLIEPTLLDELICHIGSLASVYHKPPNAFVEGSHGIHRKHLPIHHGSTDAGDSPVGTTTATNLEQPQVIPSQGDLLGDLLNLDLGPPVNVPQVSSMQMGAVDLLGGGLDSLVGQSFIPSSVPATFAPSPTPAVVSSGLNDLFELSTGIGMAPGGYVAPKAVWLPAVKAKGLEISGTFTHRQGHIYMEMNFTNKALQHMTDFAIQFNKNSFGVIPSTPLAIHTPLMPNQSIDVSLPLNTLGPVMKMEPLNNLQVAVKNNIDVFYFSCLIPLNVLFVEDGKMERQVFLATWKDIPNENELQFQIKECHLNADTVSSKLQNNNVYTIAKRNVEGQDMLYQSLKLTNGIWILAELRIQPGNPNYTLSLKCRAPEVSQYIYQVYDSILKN
- assay.explanation: beta-arrestin/AP2 interaction blockers – biochemical, validation set, GST-AP2 beads, flow cytometry, pilot screen (AID 504541);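 note: AP2 carries R879A mutation and is captured from E. coli lysate; bead-bound FITC arrestin peptide fluorescence measuring arrestin peptide binding to AP2; 0% = DMSO wells and 100% = excess unlabeled arrestin peptide control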
- cond: FITC arrestin peptide, at 10 µM, stronger effect = higher value, AP2 beta2 appendage fragment, R879A mutant

# compound, inhibition [%]
records = [
    ("CC(=O)c1cccc2c(O)c(C3=Nc4ccccc4C3=O)[nH]c12", -5.62),
    ("CC(=O)N/C(=C/c1ccc2c(c1)OCO2)C(=O)NCCO", -4.62),
    ("FC(F)(F)c1ccc(-c2noc(CN3CCCN(C4CCCCC4)CC3)n2)cc1", -10.2),
    ("Cn1cc(CN2CCC(C(=O)N3CCCCC3)CC2)c(-c2ccccc2F)n1", 0.65),
    ("CN1CCCN(C(c2ccccc2)c2ccc(Cl)cc2)CC1 (configuration not stated)", -13.9),
    ("c1ccc(Cn2ncc3c(Nc4ccccc4)ncnc32)cc1", 9.49),
    ("Cc1ccc(CN2CCN(Cc3cn[nH]c3C3CCCCC3)CC2CCO)cc1 (configuration not stated)", 7.73),
    ("COc1cccc(/C=C/C(=O)c2c(O)cc(C)oc2=O)c1O", 10.4),
    ("COc1cc2c(cc1NCc1ccc3c(c1)OCO3)oc1ccccc12", 47.4),
    ("O=C(NCc1ccc(N2CCCC2=O)cc1)c1cccc(Cl)c1", 7.63),
    ("O=C(Cc1ccccc1[N+](=O)[O-])NCc1ccncc1", -3.75),
    ("c1ccc(Nc2ccccn2)nc1", -0.14),
    ("c1ccc2[nH]c(-c3cscn3)nc2c1", 5.36),
    ("COc1ccc(OC(C)C(=O)Nc2ccccc2F)cc1 (configuration not stated)", -5.67),
    ("CCc1oc2ccccc2c1C(=O)c1cc(Br)c(O)c(Br)c1", -0.81),
    ("CN1CCN(CC/C=C2/c3ccccc3Sc3ccc(S(=O)(=O)N(C)C)cc32)CC1", -4.59),
    ("COc1cc2c(cc1OC)C(c1ccccc1)=NCC2", 6.17),
    ("CC1(C)CC(O)(CNCc2ccc3c(c2)OCO3)CCO1 (configuration not stated)", 44.7),
    ("c1cnc(N2CCN(Cc3ccc4c(c3)OCO4)CC2)nc1", 2.85),
    ("CC1(C#CC[N+]2(C)CCCCC2)CCC2C(O1)c1ccccc1OC2(C)C (configuration not stated)", -11.4),
    ("C/C(=N\\NC(=O)C1(C)CC1(Br)Br)c1ccc([N+](=O)[O-])cc1 (configuration not stated)", -5.83),
    ("CN(C)CCOC(c1ccccc1)c1ccccc1", 29.6),
    ("CCc1ccc(CN(C)Cc2nc(Cc3ccccc3)no2)nc1", 1.57),
    ("O=C(CN1C(=O)/C(=C/c2cccc(Br)c2)SC1=S)Nc1cccnc1", -4.86),
    ("Cc1ccc(OCCCCn2ccnc2C)c(C)c1", -1.94),
    ("COC(=O)C1=C(C)N(Cc2ccco2)C(=O)/C1=C\\c1ccc([N+](=O)[O-])cc1", 43.9),
    ("COc1cc(NC(=O)COc2ccccc2)c(OC)cc1NC(C)=O", -5.93),
    ("Cc1ccc(SCC(=O)Nc2nccs2)cc1", -4.67),
    ("CN1/C(=C\\C=Nc2ccccc2)C(C)(C)c2ccccc21", 11.8),
    ("CN(C)CCOC(c1ccccc1)c1ccccc1 (tested in a mixture with another compound)", -10.1),
    ("C=CCOc1ccc(C(=O)CC)cc1OC", -8.48),
    ("Cc1ccccc1-c1nn(-c2ccc(F)cc2F)cc1CNCCN(C)C", -6),
    ("OC(CCN1CCCCC1)(c1ccccc1)c1ccccc1", 2.98),
    ("COc1ccc(C2=C(CN(C)C)C(c3ccccc3)c3ccccc3O2)cc1 (configuration not stated)", 12.1),
    ("Nc1nc(Cl)nc2c1ncn2[C@@H]1O[C@H](CO)[C@@H](O)[C@H]1O", 1.36),
    ("CCOc1ccc2ccccc2c1CNc1nnnn1C", -1.6),
    ("COc1ccc(C2=NOC(COc3ccc4c(C)cc(=O)oc4c3)C2)c(OC)c1 (configuration not stated)", 2.4),
    ("COc1cc(C(=O)Nc2ccc(N(C)C)cc2)c([N+](=O)[O-])cc1OC", 2.96),
    ("COc1ccc(Cc2noc(CN(C)CCN3CCc4ccccc4C3)n2)cc1OC", -8.41),
    ("O=C(Oc1ccc2c3c(c(=O)oc2c1)CCCC3)c1ccco1", 11.5),
    ("O=C(COc1ccc(F)cc1)OCCN1CCOCC1", -0.56),
    ("COc1ccc([C@H]2[C@H](C(=O)OC(C)(C)C)N3N=Cc4ccccc4C3C23C(=O)c2ccccc2C3=O)cc1OC (some centres not stated)", 61.9),
    ("CC(=O)Nc1ccc(S(=O)(=O)c2ccc(N)cc2)cc1", -5.82),
    ("CC(C)Cc1ccc(C(C)C(=O)O)cc1 (configuration not stated)", -1.77),
    ("NS(=O)(=O)c1cc(C2(O)NC(=O)c3ccccc32)ccc1Cl (configuration not stated)", -17.4),
    ("Clc1ccc2c(c1)CCc1cccnc1C2=C1CCNCC1", 13.9),
    ("COc1ccc(CN2CCCCC2C(=O)Nc2ccc(OC)c(OCC(C)C)c2)cc1OC (configuration not stated)", 18.5),
]
